Listing of recorded max response by entry.
- assay_notes: qHTS Assay for Lipid Storage Modulators (AID 1519)
- applied_conditions: Drosophila S3 cells, BODIPY lipid droplet/cell ratio, laser cytometry; measured here: cell count channel max response; cells loaded with oleic acid
- Protocol: NIH Molecular Libraries Probe Production Centers Network [MLPCN] NIH Chemical Genomics Center [NCGC] Assay Submitter (PI): Beller, Mathias; Max-Planck-Institut fur Biophysikalische Chemie […] We dispensed 4 uL of cells at 1.25 x 10^6 cells/mL into LoBase Aurora COC 1,536-well plates (black walled, clear bottom) with a bottle-valve solenoid-based dispenser (Aurora) to obtain 5,000 cells/well. […] The ratio of the total intensity in PMT channel 1 over total intensity of channel 3 was also calculated. […]
Inconclusive results are not listed.
parameter_measured: max response (%)

CCCCC(CC)CN1CN(CC(CC)CCCC)CC(C)(N)C1 (centres undefined) | 28.9
COc1ccc(CN(CCN(C)C)c2ncccn2)cc1 | 6.82
CN1CCC(OC(c2ccccc2)c2ccccc2)CC1 | -24.7
COc1ccc(C(Cl)=C(c2ccc(OC)cc2)c2ccc(OC)cc2)cc1 | -13.4
CC[C@H](c1ccc(O)cc1)[C@@H](CC)c1ccc(O)cc1 | -23
Cc1ncc(CO)c(C=O)c1O | -8.99
CC(=O)NO | 22.2
CCOC(=O)Nc1ccc2c(c1)N(C(=O)CCN1CCOCC1)c1ccccc1S2 | -0.906
C[N+]1(C)CCC(=C(c2ccccc2)c2ccccc2)CC1 | 2.33
Nc1ccc(C(=O)NCC(=O)O)cc1 | -0.767
O=C(O)c1ccc(S(=O)(=O)N(Cl)Cl)cc1 | 17.1
Nc1ccc(S(=O)(=O)Nc2cnc3ccccc3n2)cc1 | -5.93
C[N+]12CCC(CC1)C(OC(=O)C(O)(c1ccccc1)c1ccccc1)C2 (centres undefined) | 13
CC(=O)NCCCCCC(=O)O | 6.35
CCC(Cc1c(I)cc(I)c(N)c1I)C(=O)O (centres undefined) | 19.5
O=C(O)P(=O)(O)O | 17.9
NS(=O)(=O)c1cc(C(=O)O)cc(N2CCCC2)c1Oc1ccccc1 | -4.21
CC(=O)Nc1ccc(S(=O)(=O)Nc2ccc([N+](=O)[O-])cc2)cc1 | 4.05
CN=C(N)NCCC[C@H](N)C(=O)O | -14.9
CCc1oc2ccccc2c1C(=O)c1cc(Br)c(O)c(Br)c1 | -13
CCCCNc1ccc(C(=O)OCCOCCOCCOCCOCCOCCOCCOCCOCCOC)cc1 | -3.1
CCN(CC)CCOC(=O)C(Cc1cccc2ccccc12)CC1CCCO1 (centres undefined) | 20.1
N=C(N)N1CCc2ccccc2C1 | -5.56
CC(C)NCC(O)c1ccc2ccccc2c1 (centres undefined) | 8.22
